The measurements presented in this section are drawn from paper PMC6337627.

Kindly supply the reported IC50 values for the records listed here.
Biological target: butyrylcholinesterase (BuChE) (Equus caballus, UniProt P81908)
Construct: from Electrophorus electricus and equine serum; from tissue; host or cells: equine serum
Sequence (P81908 whole entry): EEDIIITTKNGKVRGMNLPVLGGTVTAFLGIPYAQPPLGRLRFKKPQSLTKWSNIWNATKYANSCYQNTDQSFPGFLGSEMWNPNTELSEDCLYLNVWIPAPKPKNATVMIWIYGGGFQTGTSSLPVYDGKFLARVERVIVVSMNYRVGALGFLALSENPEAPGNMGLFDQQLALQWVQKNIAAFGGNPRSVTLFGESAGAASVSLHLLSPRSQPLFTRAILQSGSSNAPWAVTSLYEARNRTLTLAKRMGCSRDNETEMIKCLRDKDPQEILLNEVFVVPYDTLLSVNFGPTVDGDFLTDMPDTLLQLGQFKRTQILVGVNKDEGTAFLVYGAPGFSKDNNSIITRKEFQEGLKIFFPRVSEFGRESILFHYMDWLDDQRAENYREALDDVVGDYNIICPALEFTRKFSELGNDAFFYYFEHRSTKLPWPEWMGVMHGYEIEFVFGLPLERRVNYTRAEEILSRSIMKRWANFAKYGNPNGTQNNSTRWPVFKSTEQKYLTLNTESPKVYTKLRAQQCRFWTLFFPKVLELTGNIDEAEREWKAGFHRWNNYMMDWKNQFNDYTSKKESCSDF
Assay: biochemical
Conditions: BuChE from equine serum, substrate butyrylthiocholine, 30 min pre-incubation, mean ± SEM of triplicate independent experiments
Non-standard residues stand in square brackets, D forms with d. Residues, ends and D or L forms follow the SMILES beside them. ξ: configuration not given here. Nphe = O=C(O)CNCc1ccccc1; ξF = NC(Cc1ccccc1)C(=O)O; Ava = NCCCCC(=O)O; GABA = NCCCC(=O)O; βAla = NCCC(=O)O
Answers are plain numbers, in µM.

// below: answered compounds
{"Compound": "NCCC(=O)N(CC(=O)NC(Cc1ccccc1)C(=O)O)Cc1ccccc1 (stereo not shown) [7b] (H-[βAla]-[Nphe]-[ξF]-OH)", "IC50 [µM]": 461}
{"Compound": "O=C(O)CCCN(CC(=O)NC(Cc1ccccc1)C(=O)O)C(=O)c1ccccc1 (stereo not shown)", "IC50 [µM]": 302}
{"Compound": "NCCCCC(=O)N(CC(=O)NC(Cc1ccccc1)C(=O)O)Cc1ccccc1 (stereo not shown) [7c] (H-[Ava]-[Nphe]-[ξF]-OH)", "IC50 [µM]": 637}

Proceeding to the next compound to report its IC50.
Could you share which IC50 value was measured for NCCCC(=O)N(CC(=O)NC(Cc1ccccc1)C(=O)O)Cc1ccccc1 (stereo not shown) [7a] (H-[GABA]-[Nphe]-[ξF]-OH) ?
244

* * *

Target: acetylcholinesterase (AChE) (Electrophorus electricus)
Experiment: biochemical
Settings: AChE from Electrophorus electricus, substrate acetylthiocholine, 30 min pre-incubation, mean ± SEM of triplicate independent experiments
Starred links: 1 amine or outer side, 2 acyl side, 3 side chain; linkers in the order of their positions; H or OH if unused. Non-standard residues stand in square brackets, D forms with d. Residues, ends and D or L forms follow the SMILES beside them. ξ: configuration not given here. Suc = O=C(CCC(=O)[*:2])[*:1]; Nphe = O=C(O)CNCc1ccccc1; ξF = NC(Cc1ccccc1)C(=O)O; Ava = NCCCCC(=O)O; GABA = NCCCC(=O)O; βAla = NCCC(=O)O
Provide the reported IC50 of each item.
Answers are plain numbers, in µM.

# example entries with known answers
{"Compound": "NCCC(=O)N(CC(=O)NC(Cc1ccccc1)C(=O)O)Cc1ccccc1 (centres unmarked) [7b] (H-[βAla]-[Nphe]-[ξF]-OH)", "Measurement Type": "IC50", "Quantitative Readout": 41.3}
{"Compound": "NCCCC(=O)N(CC(=O)NC(Cc1ccccc1)C(=O)O)Cc1ccccc1 (centres unmarked) [7a] (H-[GABA]-[Nphe]-[ξF]-OH)", "Measurement Type": "IC50", "Quantitative Readout": 3.67}
{"Compound": "NCCCCC(=O)N(CC(=O)NC(Cc1ccccc1)C(=O)O)Cc1ccccc1 (centres unmarked) [7c] (H-[Ava]-[Nphe]-[ξF]-OH)", "Measurement Type": "IC50", "Quantitative Readout": 12.6}

Your task in this section: give IC50 for each listed record.
1. O=C(O)CCC(=O)N(CC(=O)NC(Cc1ccccc1)C(=O)O)Cc1ccccc1 (centres unmarked) [6e] (Suc-[Nphe]-[ξF]-OH)
2. O=C(O)CCCN(CC(=O)NC(Cc1ccccc1)C(=O)O)C(=O)c1ccccc1 (centres unmarked)

1. 305
2. 10.6

* * *

Assign Selectivity to each entry below.
Target: acetylcholinesterase (AChE) (Electrophorus electricus, UniProt O42275)
Sequence (O42275 24-633): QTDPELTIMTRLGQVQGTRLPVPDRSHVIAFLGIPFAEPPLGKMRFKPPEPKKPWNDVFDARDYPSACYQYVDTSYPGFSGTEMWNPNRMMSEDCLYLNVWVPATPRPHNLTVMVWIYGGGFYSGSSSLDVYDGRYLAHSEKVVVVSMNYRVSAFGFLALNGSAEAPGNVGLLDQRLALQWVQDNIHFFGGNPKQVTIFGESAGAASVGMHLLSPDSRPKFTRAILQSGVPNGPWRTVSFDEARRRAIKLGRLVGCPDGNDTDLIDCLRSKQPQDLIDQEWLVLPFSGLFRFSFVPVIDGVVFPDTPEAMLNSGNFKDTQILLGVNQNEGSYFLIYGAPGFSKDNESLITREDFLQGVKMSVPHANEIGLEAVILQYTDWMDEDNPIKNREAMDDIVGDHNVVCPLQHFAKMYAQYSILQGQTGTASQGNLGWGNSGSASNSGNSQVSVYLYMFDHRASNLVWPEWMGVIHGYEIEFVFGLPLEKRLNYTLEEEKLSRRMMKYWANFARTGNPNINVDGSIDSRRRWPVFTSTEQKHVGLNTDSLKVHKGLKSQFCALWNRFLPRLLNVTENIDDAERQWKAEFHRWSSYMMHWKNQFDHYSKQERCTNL
Test: biochemical
Conditions: AChE versus BuChE (values fit IC50 BuChE / IC50 AChE)
Starred links: 1 amine or outer side, 2 acyl side, 3 side chain; linkers in the order of their positions; H or OH if unused. Non-standard residues stand in square brackets, D forms with d. Residues, ends and D or L forms follow the SMILES beside them. ξ: configuration not given here. Suc = O=C(CCC(=O)[*:2])[*:1]; Nphe = O=C(O)CNCc1ccccc1; ξF = NC(Cc1ccccc1)C(=O)O; Ava = NCCCCC(=O)O; GABA = NCCCC(=O)O; βAla = NCCC(=O)O
One number for each entry.

Example results:
{"Molecule": "NCCCC(=O)N(CC(=O)NC(Cc1ccccc1)C(=O)O)Cc1ccccc1 (centres unmarked) [7a] (H-[GABA]-[Nphe]-[ξF]-OH)", "Quantitative Readout": 66.44}
{"Molecule": "O=C(O)CCC(=O)N(CC(=O)NC(Cc1ccccc1)C(=O)O)Cc1ccccc1 (centres unmarked) [6e] (Suc-[Nphe]-[ξF]-OH)", "Quantitative Readout": 0.45}
{"Molecule": "NCCCCC(=O)N(CC(=O)NC(Cc1ccccc1)C(=O)O)Cc1ccccc1 (centres unmarked) [7c] (H-[Ava]-[Nphe]-[ξF]-OH)", "Quantitative Readout": 50.69}

Provide the reported Selectivity of each entry below, same order.
1. NCCC(=O)N(CC(=O)NC(Cc1ccccc1)C(=O)O)Cc1ccccc1 (centres unmarked) [7b] (H-[βAla]-[Nphe]-[ξF]-OH)
2. O=C(O)CCCN(CC(=O)NC(Cc1ccccc1)C(=O)O)C(=O)c1ccccc1 (centres unmarked)

1. 11.17
2. 28.36
